Each entry below carries its reported IC50.
# Tested on: 786-0
# assay.notes: Cytotoxicity against human 786-O cells after 72 hrs by CCK-8 assay
# Type: functional, cell-based
# experimental.context: 786-0, 72 h
State just the number; it will be interpreted in µM.

Below, each entry is followed by its recorded IC50 result.
>>> print(df.to_string())
                                  structure  recorded_metric  obs_value
0  CC[C@H](C)/C=C(C)/C=C/C1=CC2=C(Cl)C(=O)[C@](C)(O)[C@@H](CC(C)=O)C2=CO1             IC50          3
1  CC[C@H](C)/C=C(C)/C=C/C1=CC2=C(Cl)C(=O)[C@](C)(O)[C@@H](O)[C@H]2CO1             IC50         48
2  CC[C@H](C)/C=C(C)/C=C/C1=CC2=C(Cl)C(=O)[C@]3(C)OC(=O)/C(=C(\C)O)[C@]3(O)[C@@]23O[C@H]3O1             IC50         10
3  CC[C@H](C)/C=C(C)/C=C/C1=CC2=C(Cl)[C@H](OC)[C@]3(C)O[C@@](C)(OC)[C@H](C(C)=O)[C@H]3C2=CO1             IC50        8.9

The recorded IC50 for entry CC[C@H](C)/C=C(C)/C=C/C1=CC2=C(Cl)[C@H](OC)[C@]3(C)O[C@](C)(OC)[C@H](C(C)=O)[C@H]3C2=CO1 equals 38

// IC50 lookup, compound = CC[C@H](C)/C=C(C)/C=C/C1=CC2=C(Cl)[C@H](O)[C@]3(C)OC(=O)[C@H](C(C)=O)[C@H]3C2=CO1 , result: 34
